These entries and their values trace back to patent US8916600B2.

- target: Human Glucocorticoid Receptor (GR) (Homo sapiens (Human), UniProt P04150)
- Sequence (P04150 whole entry): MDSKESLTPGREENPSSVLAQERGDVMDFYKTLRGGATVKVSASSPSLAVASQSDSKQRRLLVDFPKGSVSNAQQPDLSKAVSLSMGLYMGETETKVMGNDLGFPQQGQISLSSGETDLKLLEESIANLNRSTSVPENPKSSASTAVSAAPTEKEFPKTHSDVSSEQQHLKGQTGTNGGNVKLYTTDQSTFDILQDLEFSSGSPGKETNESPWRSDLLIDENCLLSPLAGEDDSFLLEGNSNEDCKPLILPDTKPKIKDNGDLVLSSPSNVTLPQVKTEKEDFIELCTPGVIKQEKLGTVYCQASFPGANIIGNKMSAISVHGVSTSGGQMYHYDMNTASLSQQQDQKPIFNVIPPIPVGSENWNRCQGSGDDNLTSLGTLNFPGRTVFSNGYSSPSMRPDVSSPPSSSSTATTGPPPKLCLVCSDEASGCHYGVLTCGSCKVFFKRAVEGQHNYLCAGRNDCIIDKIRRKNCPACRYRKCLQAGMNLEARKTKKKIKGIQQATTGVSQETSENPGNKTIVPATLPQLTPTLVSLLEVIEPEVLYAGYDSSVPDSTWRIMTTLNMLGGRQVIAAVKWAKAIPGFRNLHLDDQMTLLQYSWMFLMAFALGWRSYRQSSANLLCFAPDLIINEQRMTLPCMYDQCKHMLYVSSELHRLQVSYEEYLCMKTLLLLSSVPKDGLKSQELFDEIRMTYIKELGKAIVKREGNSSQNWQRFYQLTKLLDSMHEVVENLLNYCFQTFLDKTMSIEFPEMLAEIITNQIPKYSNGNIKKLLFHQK
pIC50: −log10 of the molar value.
assayEndpoint: pIC50

1. C[C@H](NC(=O)C(C)(F)F)[C@H](Oc1ccc2c(cnn2-c2cccc(C(=O)NC3CCCC3)c2)c1)c1ccc2c(c1)OCOC2 :: 9.10

a. C[C@H](NC(=O)C(C)(F)F)[C@H](Oc1ccc2c(cnn2-c2cccc(C(=O)NC3CCCC3)c2)c1)c1ccc2c(c1)OCCO2
b. C[C@H](NC(=O)C(C)(F)F)[C@H](Oc1ccc2c(cnn2-c2cccc(C(=O)N[C@@H]3CCC[C@@H]3O)c2)c1)c1ccc2c(c1)OCCO2
c. CC[C@@H](O)CNC(=O)c1cccc(-n2ncc3cc(O[C@H](c4ccc5c(c4)OCOC5)[C@H](C)NC(=O)C(C)(F)F)ccc32)c1
input: Please list the entries, largest pIC50 first. Record the ranking as a list of labels in the requested order.
output: b, a, c
(b: 9.19, a: 8.89, c: 8.67)
